All figures here come from patent US20160200786A1.

Provide the reported IC50 of each item.
Target: GST-BCL-2δC21 fusion protein [GST: P08515]
Assay: fluorescence polarization, unlabelled peptide displacing 25 nM fluoresceinated BIDBH3 from 1 µM GST-BCL-2
Ends that are not written are not given here.

{"BINDER": "EDIIRNIARHAAQVGASMDR (not fully specified) [BIDBH3 mut]", "IC50": "> 30 µM"}

Switching to the query record.
What value of measured IC50 is listed for VIPMAAVKQALREAGDEFEL (fluorescein at the amino-terminus via an AHA linker in the Kd assays; unlabelled as competitor and on mitochondria) [BCLXBH3] ?
> 30 µM
